experimentSummary: Ionization constant, pKa of the compound in water in presence of 20 to 27.4% acetonitrile cosolvent by potentiometric titration method
Type: physicochemical
particulars: water with 20 to 27.4% acetonitrile cosolvent
quantityKind: pKa

>>> readoutvalue("Nc1cccc(O)c1 [3-AMINOPHENOL]")
4.13
>>> readoutvalue("Cc1cccc(C)c1NC(=O)C1CCCCN1C (stereo not drawn) [MEPIVACAINE]")
7.88
>>> readoutvalue("CCn1cc(C(=O)O)c(=O)c2ccc(C)nc21 [NALIDIXIC ACID]")
6.63

====

experimentSummary: Lipophilicity, log D of the compound in toluene/water system at pH 7 by shake-flask assay based HPLC analysis
Format: physicochemical
particulars: buffer
logD reference
quantityKind: logD

>>> readoutvalue("CC(C)Cc1ccc(C(C)C(=O)O)cc1 (stereo not given) [IBUPROFEN]")
-0.43
>>> readoutvalue("Cc1cccc(C)c1NC(=O)C1CCCCN1C (stereo not given) [MEPIVACAINE]")
0.89
>>> readoutvalue("CCn1cc(C(=O)O)c(=O)c2ccc(C)nc21 [NALIDIXIC ACID]")
-0.12
>>> readoutvalue("Nc1cccc(O)c1 [3-AMINOPHENOL]")
-1.77
